Numbers sourced from patent US6271238A.

pIC50: −log10 of the molar value.
Parameter: pIC50

Prompt line: Please tell me: pIC50 of CC(C)(C)OC(=O)Nc1cnc(-c2ccccc2)n(CC(=O)NC(Cc2ccccc2)C(=O)C(=O)CCCn2ccccc2=O)c1=O (stereo not shown) [Compound 72] , system Human urokinase (Homo sapiens)?
Response line: < 5.00

Prompt line: Please tell me: pIC50 of Nc1cnc(-c2ccccc2)n(CC(=O)NC(Cc2ccccc2)C(=O)C(=O)CCCc2ccccc2)c1=O (stereo not shown) [Compound 40] , system Human urokinase (Homo sapiens)?
Response line: < 5.00

Prompt line: Please tell me: pIC50 of O=CNc1cnc(-c2ccccc2)n(CC(=O)NC(Cc2ccccc2)C(=O)C(=O)CCCOc2ccccn2)c1=O (stereo not shown) [Compound 79] , system Human urokinase (Homo sapiens)?
Response line: < 5.00

Prompt line: Please tell me: pIC50 of CC(=O)C(=O)C(Cc1cccc(F)c1)NC(=O)Cn1c(-c2ccccc2)ncc(N)c1=O (stereo not shown) [Compound 52] , system Human urokinase (Homo sapiens)?
Response line: < 5.00

Prompt line: Please tell me: pIC50 of O=C(Cn1c(-c2ccccc2)ncc(NS(=O)(=O)NCc2ccccc2)c1=O)NC(Cc1ccccc1)C(=O)C(=O)CCCOc1ccccn1 (stereo not shown) [Compound 82] , system Human urokinase (Homo sapiens)?
Response line: < 5.00

Prompt line: Please tell me: pIC50 of CC(=O)Nc1cnc(-c2ccccc2)n(CC(=O)NC(Cc2ccccc2)C(=O)C(=O)CCCOc2ccccn2)c1=O (stereo not shown) [Compound 80] , system Human urokinase (Homo sapiens)?
Response line: < 5.00

Prompt line: Please tell me: pIC50 of CC(C)(C)OC(=O)Nc1cnc(-c2ccccc2)n(CC(=O)NC(Cc2ccccc2)C(=O)C(=O)CCCOc2ccccn2)c1=O (stereo not shown) [Compound 74] , system Human urokinase (Homo sapiens)?
Response line: < 5.00

====

Target system: human chymase (Homo sapiens, UniProt P23946)
Construct: 60 g human tonsils were finely divided by scissors and a scalpel; from tissue; host or cells: human tonsils
Sequence (P23946 22-247): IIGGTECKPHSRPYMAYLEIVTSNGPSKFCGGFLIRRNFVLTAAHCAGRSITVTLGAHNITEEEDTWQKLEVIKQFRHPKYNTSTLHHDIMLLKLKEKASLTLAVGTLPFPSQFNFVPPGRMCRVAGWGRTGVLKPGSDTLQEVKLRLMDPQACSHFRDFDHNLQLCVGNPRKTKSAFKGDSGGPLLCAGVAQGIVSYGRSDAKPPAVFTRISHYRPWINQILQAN
Experiment description: Inhibitory activity on human chymase (angiotensin I as substrate)
Type: biochemical
Condition summary: substrate angiotensin I; pH 8.0, 37° C., 60 min; read-out: Human Chymase (IC50: nM), 50% inhibitory concentration
Parameter: IC50

Prompt line: Please report the recorded IC50 for CC(C)(C)OC(=O)Nc1cnc(-c2ccccc2)n(CC(=O)NC(Cc2ccccc2)C(=O)C(=O)CCc2ccccc2)c1=O (stereo not shown) .
Response line: 148 nM

Prompt line: Please report the recorded IC50 for CCCCC(=O)C(=O)C(Cc1ccccc1)NC(=O)Cn1c(-c2ccccc2)ncc(N)c1=O (stereo not shown) .
Response line: 146 nM

Prompt line: Please report the recorded IC50 for CC(C)(C)OC(=O)Nc1cnc(-c2ccccc2)n(CC(=O)NC(Cc2ccccc2)C(=O)C(=O)CCCOc2ccccn2)c1=O (stereo not shown) .
Response line: 11 nM

Prompt line: Please report the recorded IC50 for CC(=O)C(=O)C(Cc1ccc(F)cc1)NC(=O)Cn1c(-c2ccccc2)ncc(NC(=O)OC(C)(C)C)c1=O (stereo not shown) .
Response line: > 10000 nM

Prompt line: Please report the recorded IC50 for Nc1cnc(-c2ccccc2)n(CC(=O)NC(Cc2ccccc2)C(=O)C(=O)CCCOc2ccccn2)c1=O (stereo not shown) .
Response line: 2.6 nM

Prompt line: Please report the recorded IC50 for O=CNc1cnc(-c2ccccc2)n(CC(=O)NC(Cc2ccccc2)C(=O)C(=O)CCCOc2ccccn2)c1=O (stereo not shown) .
Response line: 2.4 nM

Prompt line: Please report the recorded IC50 for CC(=O)C(=O)C(Cc1ccc(O)c(F)c1)NC(=O)Cn1c(-c2ccccc2)ncc(N)c1=O (stereo not shown) .
Response line: 73 nM

====

Record form. Attribute: IC50. Fill in for each entry.
Target system: Human elastase (Homo sapiens)
Sequence (P08246 30-247 limits assumed): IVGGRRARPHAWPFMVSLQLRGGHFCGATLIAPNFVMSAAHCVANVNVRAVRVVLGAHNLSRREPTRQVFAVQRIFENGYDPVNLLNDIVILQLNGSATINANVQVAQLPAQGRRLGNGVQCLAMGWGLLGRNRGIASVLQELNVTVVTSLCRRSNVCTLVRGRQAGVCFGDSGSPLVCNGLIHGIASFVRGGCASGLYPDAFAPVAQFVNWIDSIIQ
// units = µM; emit number, no label

Prompt line: Please tell me: IC50 of CC(C)(C)OC(=O)Nc1cnc(-c2ccccc2)n(CC(=O)NC(Cc2ccccc2)C(=O)C(=O)CCCn2ccccc2=O)c1=O (stereo not shown) , system Human elastase (Homo sapiens)?
Response line: 5.5

Prompt line: Please tell me: IC50 of O=C(Cn1c(-c2ccccc2)ncc(NS(=O)(=O)NCc2ccccc2)c1=O)NC(Cc1ccccc1)C(=O)C(=O)CCCOc1ccccn1 (stereo not shown) , system Human elastase (Homo sapiens)?
Response line: 4

Prompt line: Please tell me: IC50 of Nc1cnc(-c2ccccc2)n(CC(=O)NC(Cc2ccccc2)C(=O)C(=O)CCCc2ccccc2)c1=O (stereo not shown) , system Human elastase (Homo sapiens)?
Response line: 1.9

Prompt line: Please tell me: IC50 of CC(=O)Nc1cnc(-c2ccccc2)n(CC(=O)NC(Cc2ccccc2)C(=O)C(=O)CCCOc2ccccn2)c1=O (stereo not shown) , system Human elastase (Homo sapiens)?
Response line: 2.1

Prompt line: Please tell me: IC50 of CC(C)(C)OC(=O)Nc1cnc(-c2ccccc2)n(CC(=O)NC(Cc2ccccc2)C(=O)C(=O)CCCOc2ccccn2)c1=O (stereo not shown) , system Human elastase (Homo sapiens)?
Response line: 6

====

Target system: Human cathepsin G (Homo sapiens)
Sequence (P08311 21-255): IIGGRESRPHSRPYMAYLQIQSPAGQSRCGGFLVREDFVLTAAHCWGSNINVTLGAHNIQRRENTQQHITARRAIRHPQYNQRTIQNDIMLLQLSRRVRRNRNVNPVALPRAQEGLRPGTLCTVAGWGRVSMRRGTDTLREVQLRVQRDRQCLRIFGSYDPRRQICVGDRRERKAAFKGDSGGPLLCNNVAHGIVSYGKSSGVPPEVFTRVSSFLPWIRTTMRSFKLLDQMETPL
Parameter: pIC50
For clarity, pIC50 is expressed as the negative log10 of concentration in mol/L.

Prompt line: Please report the recorded pIC50 for O=CNc1cnc(-c2ccccc2)n(CC(=O)NC(Cc2ccccc2)C(=O)C(=O)CCCOc2ccccn2)c1=O (stereo not shown) .
Response line: 6.38

Prompt line: Please report the recorded pIC50 for O=C(Cn1c(-c2ccccc2)ncc(NS(=O)(=O)NCc2ccccc2)c1=O)NC(Cc1ccccc1)C(=O)C(=O)CCCOc1ccccn1 (stereo not shown) .
Response line: 7.72

Prompt line: Please report the recorded pIC50 for CC(=O)Nc1cnc(-c2ccccc2)n(CC(=O)NC(Cc2ccccc2)C(=O)C(=O)CCCOc2ccccn2)c1=O (stereo not shown) .
Response line: 7.74

Prompt line: Please report the recorded pIC50 for CC(=O)C(=O)C(Cc1cccc(F)c1)NC(=O)Cn1c(-c2ccccc2)ncc(N)c1=O (stereo not shown) .
Response line: 6.46

Prompt line: Please report the recorded pIC50 for CC(C)(C)OC(=O)Nc1cnc(-c2ccccc2)n(CC(=O)NC(Cc2ccccc2)C(=O)C(=O)CCCOc2ccccn2)c1=O (stereo not shown) .
Response line: 7.05

Prompt line: Please report the recorded pIC50 for CC(C)(C)OC(=O)Nc1cnc(-c2ccccc2)n(CC(=O)NC(Cc2ccccc2)C(=O)C(=O)CCCn2ccccc2=O)c1=O (stereo not shown) .
Response line: 6.27

====

Target system: human chymase (Homo sapiens)
Construct: 60 g human tonsils were finely divided by scissors and a scalpel; from tissue; host or cells: human tonsils
Experiment description: Inhibitory activity on human chymase (angiotensin I as substrate)
Assay type: biochemical
Condition summary: substrate angiotensin I; pH 8.0, 37° C., 60 min; read-out: Human Chymase (IC50: nM), 50% inhibitory concentration
Parameter: IC50 (nM)
// units = nM; emit number, no label

Prompt line: Please tell me: IC50 of CC(=O)C(=O)C(Cc1cccc(C)c1)NC(=O)Cn1c(-c2ccccc2)ncc(N)c1=O (stereo not drawn) , system human chymase (Homo sapiens)?
Response line: 101

Prompt line: Please tell me: IC50 of CCOC(=O)CCCC(=O)C(=O)C(Cc1cccc(F)c1)NC(=O)Cn1c(-c2ccccc2)ncc(N)c1=O (stereo not drawn) , system human chymase (Homo sapiens)?
Response line: 36

Prompt line: Please tell me: IC50 of Nc1cnc(-c2ccccc2)n(CC(=O)NC(Cc2ccccc2)C(=O)C(=O)c2ccccc2)c1=O (stereo not drawn) , system human chymase (Homo sapiens)?
Response line: 1590

====

Target system: dog chymase (Canis lupus familiaris)
Construct: 60 g dog heart was finely divided by scissors and a scalpel; from tissue; host or cells: dog heart
Sequence (P21842 22-249): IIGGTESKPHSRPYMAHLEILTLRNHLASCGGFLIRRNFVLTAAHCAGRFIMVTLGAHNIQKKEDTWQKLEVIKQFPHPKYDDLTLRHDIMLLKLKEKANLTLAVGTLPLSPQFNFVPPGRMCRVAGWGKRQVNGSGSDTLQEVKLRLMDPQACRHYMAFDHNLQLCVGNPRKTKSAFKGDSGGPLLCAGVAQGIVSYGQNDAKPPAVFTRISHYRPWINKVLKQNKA
Experiment description: Inhibitory activity on dog chymase (angiotensin I as substrate)
Type: biochemical
Condition summary: pH 8.0, 37° C., 60 min, read-out: Dog Chymase (IC50: nM), 50% inhibitory concentration
Counter-ions that a name gives are not always drawn.
Parameter: IC50 (nM)
// units = nM; emit number, no label

Prompt line: Please tell me: IC50 of CC(=O)C(=O)C(Cc1cccc(C)c1)NC(=O)Cn1c(-c2ccccc2)ncc(N)c1=O (stereo not drawn) [Compound 60] , system dog chymase (Canis lupus familiaris)?
Response line: 9.1

Prompt line: Please tell me: IC50 of Nc1cnc(-c2ccccc2)n(CC(=O)NC(Cc2ccccc2)C(=O)C(=O)CCCn2ccccc2=O)c1=O (stereo not drawn) [Compound 73, hydrochloride] , system dog chymase (Canis lupus familiaris)?
Response line: 2.9

Prompt line: Please tell me: IC50 of Nc1cnc(-c2ccccc2)n(CC(=O)NC(Cc2ccccc2)C(=O)C(=O)CCCOc2ccccn2)c1=O (stereo not drawn) [Compound 75] , system dog chymase (Canis lupus familiaris)?
Response line: 1

Prompt line: Please tell me: IC50 of CC(C)(C)OC(=O)Nc1cnc(-c2ccccc2)n(CC(=O)NC(Cc2ccccc2)C(=O)C(=O)CCCOc2ccccn2)c1=O (stereo not drawn) [Compound 74] , system dog chymase (Canis lupus familiaris)?
Response line: 0.92

Prompt line: Please tell me: IC50 of Nc1cnc(-c2ccccc2)n(CC(=O)NC(Cc2ccccc2)C(=O)C(=O)c2ccccc2)c1=O (stereo not drawn) [Compound 46] , system dog chymase (Canis lupus familiaris)?
Response line: 494

Prompt line: Please tell me: IC50 of Nc1cnc(-c2ccccc2)n(CC(=O)NC(Cc2ccccc2)C(=O)C(=O)CCCC(=O)O)c1=O (stereo not drawn) [Compound 48] , system dog chymase (Canis lupus familiaris)?
Response line: 33

Prompt line: Please tell me: IC50 of CC(=O)C(=O)C(Cc1cccc(Cl)c1)NC(=O)Cn1c(-c2ccccc2)ncc(N)c1=O (stereo not drawn) [Compound 62] , system dog chymase (Canis lupus familiaris)?
Response line: 5

Prompt line: Please tell me: IC50 of O=CNc1cnc(-c2ccccc2)n(CC(=O)NC(Cc2ccccc2)C(=O)C(=O)CCCOc2ccccn2)c1=O (stereo not drawn) [Compound 79] , system dog chymase (Canis lupus familiaris)?
Response line: 0.32

Prompt line: Please tell me: IC50 of CC(=O)C(=O)C(Cc1ccc(Cl)cc1)NC(=O)Cn1c(-c2ccccc2)ncc(N)c1=O (stereo not drawn) [Compound 58] , system dog chymase (Canis lupus familiaris)?
Response line: 71

Prompt line: Please tell me: IC50 of Nc1cnc(-c2ccccc2)n(CC(=O)NC(Cc2ccccc2)C(=O)C(=O)CCCc2ccccc2)c1=O (stereo not drawn) [Compound 40] , system dog chymase (Canis lupus familiaris)?
Response line: 13

Prompt line: Please tell me: IC50 of CC(C)(C)OC(=O)Nc1cnc(-c2ccccc2)n(CC(=O)NC(Cc2ccccc2)C(=O)C(=O)CCCn2ccccc2=O)c1=O (stereo not drawn) [Compound 72] , system dog chymase (Canis lupus familiaris)?
Response line: 1.6

Prompt line: Please tell me: IC50 of O=C(Cn1c(-c2ccccc2)ncc(NC(=O)C2CCOC2)c1=O)NC(Cc1ccccc1)C(=O)C(=O)CCCc1ccccc1 (stereo not drawn) [Compound 81] , system dog chymase (Canis lupus familiaris)?
Response line: 0.29

Prompt line: Please tell me: IC50 of CC(=O)Nc1cnc(-c2ccccc2)n(CC(=O)NC(Cc2ccccc2)C(=O)C(=O)CCCOc2ccccn2)c1=O (stereo not drawn) [Compound 80] , system dog chymase (Canis lupus familiaris)?
Response line: 0.35

Prompt line: Please tell me: IC50 of CC(=O)C(=O)C(Cc1ccc(F)cc1)NC(=O)Cn1c(-c2ccccc2)ncc(NC(=O)OC(C)(C)C)c1=O (stereo not drawn) [Compound 55] , system dog chymase (Canis lupus familiaris)?
Response line: 98

Prompt line: Please tell me: IC50 of CC(=O)C(=O)C(Cc1ccc(O)c(F)c1)NC(=O)Cn1c(-c2ccccc2)ncc(N)c1=O (stereo not drawn) [Compound 50] , system dog chymase (Canis lupus familiaris)?
Response line: 19
